Molecular target: Carnitine O-palmitoyltransferase 1, liver isoform (Homo sapiens)
Sequence (P50416 whole entry, canonical isoform): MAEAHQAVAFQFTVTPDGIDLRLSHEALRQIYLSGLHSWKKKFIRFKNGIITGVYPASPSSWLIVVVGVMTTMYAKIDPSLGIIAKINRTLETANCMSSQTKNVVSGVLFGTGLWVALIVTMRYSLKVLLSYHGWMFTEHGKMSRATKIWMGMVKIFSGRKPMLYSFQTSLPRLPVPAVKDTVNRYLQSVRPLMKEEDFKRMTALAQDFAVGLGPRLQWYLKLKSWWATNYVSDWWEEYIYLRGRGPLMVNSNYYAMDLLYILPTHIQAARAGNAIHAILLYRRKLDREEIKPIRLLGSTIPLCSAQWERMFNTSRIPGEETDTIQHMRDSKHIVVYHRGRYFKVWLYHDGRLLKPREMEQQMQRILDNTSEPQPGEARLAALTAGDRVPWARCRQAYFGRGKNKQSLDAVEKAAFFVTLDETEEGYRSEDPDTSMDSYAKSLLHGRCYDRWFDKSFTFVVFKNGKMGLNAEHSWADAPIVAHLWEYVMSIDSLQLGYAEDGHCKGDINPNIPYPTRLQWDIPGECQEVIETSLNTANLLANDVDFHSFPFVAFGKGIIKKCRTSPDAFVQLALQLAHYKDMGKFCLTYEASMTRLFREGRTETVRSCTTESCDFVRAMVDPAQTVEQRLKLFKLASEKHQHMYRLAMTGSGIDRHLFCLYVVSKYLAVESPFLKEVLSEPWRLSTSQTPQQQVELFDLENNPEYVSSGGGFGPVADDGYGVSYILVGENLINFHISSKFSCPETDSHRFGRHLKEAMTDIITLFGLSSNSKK
Test: SUPPLEMENTARY: Inhibition of Carnitine palmitoyltransferase 1, liver isoform
pIC50: −log10 of the molar value.
recorded-metric: pIC50

INSERT INTO assay_data (compound, recorded_metric, observed_result) VALUES
  ('COc1ccc(Cl)cc1S(=O)(=O)c1cn(CC(=O)O)c2ccc(C(=O)Nc3ccccc3)cc12', 'pIC50', 7.44),
  ('NC(=O)c1ccc(-c2csc([C@H]3CCCCN3C(=O)COc3ccccc3)n2)cc1', 'pIC50', 6.62),
  ('O=C1CCCN1c1cccc(-c2nc([C@H]3CCCCN3C(=O)COc3ccccc3)no2)c1', 'pIC50', 6.85),
  ('O=C1CN(c2cccc(-c3n[nH]c([C@H]4CCCCN4C(=O)COc4ccccc4)n3)c2)C(=O)N1', 'pIC50', 7.01),
  ('COc1ccc(Cl)cc1S(=O)(=O)Nc1cccc(C#Cc2ccc(C(=O)O)cc2)c1', 'pIC50', 6.65),
  ('Cc1cc(C)cc(S(=O)(=O)N2CCc3ccc(C(=O)Nc4ccc(CC(=O)O)cc4)cc32)c1', 'pIC50', 6.73),
  ('O=C1Nc2ccc(-c3noc([C@H]4CCCCN4C(=O)COc4ccccc4)n3)cc2CO1', 'pIC50', 7.01);

[P] Cc1cccc(S(=O)(=O)N2CCOc3ccc(C(=O)Nc4nc(CC(=O)O)cs4)cc32)c1
[Q] CN(C)C(=O)c1ccc(-c2noc(C3C4CC4CN3C(=O)COc3ccccc3)n2)cc1 (centres undefined)
[ask] From the items above, decide which of P and Q has the lower pIC50 reading. Write the label of whichever entry you select.
[reply] Q
(Q: 6.78, P: 7.25)

###

Test: SUPPLEMENTARY: Lyophilisation Solubility Assay (LYSA)
Type: physicochemical
Conditions: read-out: Kinetic_solubility
recorded-metric: solubility kinetic (µg/mL)

[1] O=C1CCCN1c1cccc(-c2nc([C@H]3CCCCN3C(=O)COc3ccccc3)no2)c1
[2] CC(=O)Nc1ccc(F)c(-c2n[nH]c([C@H]3CCCCN3C(=O)COc3ccccc3)n2)c1
[3] COc1ccc(Cl)cc1Sc1c[nH]c2ccc(C(=O)Nc3ccc(C(=O)O)cc3)cc12
[ask] Could you arrange the 3 compounds above by solubility kinetic, starting with the largest number? Answer with the labels in sequence, matching the requested order.
[reply] 2, 1, 3
(2: 181 µg/mL, 1: 9 µg/mL, 3: 6 µg/mL)

###

A short record of IC50 observed with UniProt:P23786 follows.
Sequence (P23786 whole entry): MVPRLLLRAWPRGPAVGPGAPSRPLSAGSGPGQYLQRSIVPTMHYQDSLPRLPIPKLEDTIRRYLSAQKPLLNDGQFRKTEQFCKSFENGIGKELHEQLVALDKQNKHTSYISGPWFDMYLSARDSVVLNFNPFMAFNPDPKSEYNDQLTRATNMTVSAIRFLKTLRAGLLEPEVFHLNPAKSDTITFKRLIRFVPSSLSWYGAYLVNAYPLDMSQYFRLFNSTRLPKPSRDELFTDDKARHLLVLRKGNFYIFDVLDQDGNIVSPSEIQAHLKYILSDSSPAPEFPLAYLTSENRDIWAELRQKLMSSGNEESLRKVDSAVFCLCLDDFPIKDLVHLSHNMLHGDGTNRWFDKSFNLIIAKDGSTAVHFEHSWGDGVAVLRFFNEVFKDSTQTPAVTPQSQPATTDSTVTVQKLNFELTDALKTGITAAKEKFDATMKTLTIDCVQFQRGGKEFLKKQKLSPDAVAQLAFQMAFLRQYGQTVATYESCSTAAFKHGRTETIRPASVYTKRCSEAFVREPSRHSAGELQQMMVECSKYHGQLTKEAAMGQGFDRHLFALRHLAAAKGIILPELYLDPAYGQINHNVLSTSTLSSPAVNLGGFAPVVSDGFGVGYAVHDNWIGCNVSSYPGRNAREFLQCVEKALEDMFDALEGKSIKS

INSERT INTO measurements (cpd_smiles, tested_on, recorded_metric, observed_result) VALUES
  ('COc1ccc(Cl)cc1S(=O)(=O)c1cn(CCCO)c2ccc(C(=O)Nc3ccccc3)cc12', 'UniProt:P23786', 'IC50', '> 100 µM');

[ask] Look at this compound and give its reported IC50. "O=C(COc1ccccc1)N1CCCC[C@@H]1c1nc(-c2cccnc2)cs1"
[reply] 16.7 µM

[ask] Now consider "O=C(O)Cc1csc(NC(=O)c2ccc3c(c2)N(S(=O)(=O)c2cccc(Cl)c2)CC3)n1" .
[reply] > 100 µM

[ask] Now consider "O=C(COc1ccccc1)N1CCCC[C@@H]1c1nc(-c2ccncc2)cs1" .
[reply] 8.32 µM

[ask] Now consider "COc1ccc(Cl)cc1S(=O)(=O)N1CCOc2c(C)cc(C(=O)Nc3ccc(CC(=O)O)cc3)cc21" .
[reply] > 100 µM

[ask] Now consider "Cc1nnsc1-c1noc([C@H]2CCCCN2C(=O)COc2ccccc2)n1" .
[reply] > 100 µM

[ask] Now consider "COc1ccc(Cl)cc1S(=O)(=O)N1COc2ccc(C(=O)Nc3ccn(CC(=O)O)n3)cc21" .
[reply] > 100 µM

[ask] Now consider "COc1ccc(Cl)cc1S(=O)(=O)N1CCOc2ncc(C(=O)Nc3ccccc3)cc21" .
[reply] > 100 µM

[ask] Now consider "O=C([C@H]1CCCCN1C(=O)COc1ccccc1)N1Cc2ccc(O[C@H]3CCOC3)cc2C1" .
[reply] 0.551 µM
